Target: T1, human BCMA-hFc kih monovalent recombinant protein (human, UniProt P0DOX5 223-449 = IgG part)
T1 construct: Knob-into-hole heterodimer with one BCMA arm, expressed in HEK293E; also called human BCMA-hFc recombinant protein
Experiment: SPR (Biacore T200), BCMA-hFc captured on Protein A chip, Fab as analyte, 1:1 Langmuir
outcome.measure: kon (M⁻¹ s⁻¹)

binder: 34G2 Fab (Fab, V domains shown, Murine BCMA Fab, Ni-NTA purified) VH: EVQLQQSGPELRKPGETVKISCKASGYTFTNYGMNWVKQTPGKGLKWMGWINTYTGERIYADDFKGRFAFSLETSASTAYLQINNLKNEDTATYFCARGEIYYGYDVGFVYWGQGTLVTVSA VL: DIVLTQSPASLVVSLGQRATISCRASKSVSTSGYSYMHWYQQKPGQPPKLLIYLASNLESGVPARFSGSGSGTDFTLNIHPVEEEDAATYYCQHSRELPWTFGGGTRLEIK
u: M⁻¹ s⁻¹
reading: 142000
--
binder: 23F8 Fab (Fab, V domains shown, Murine BCMA Fab, Ni-NTA purified) VH: EIQLVQSGPELKKPGETVKISCTASGYTFTNFGMNWVRQAPGKALRWMGWINTYTGDQIYADDFKGRFAFSLETSASTAYLQINNLKNEDTATYFCARGEIYYGYDVGFVYWGQGTLVTVSA VL: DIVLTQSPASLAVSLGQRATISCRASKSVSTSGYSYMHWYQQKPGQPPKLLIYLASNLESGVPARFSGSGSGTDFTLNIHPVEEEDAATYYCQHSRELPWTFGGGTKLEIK
u: M⁻¹ s⁻¹
reading: 57700
--
binder: 23G9 Fab (Fab, V domains shown, Murine BCMA Fab, Ni-NTA purified) VH: EVQLQQSGTVLTRPGASVKLSCKASGYSFSSYWMHWLKQRPGQGLEWIGAIYPGNSRTTYNQKFKGEAKLTADTSASTAYMDLSSLTNADSAVYFCTREETYWGQGTLVTVSA VL: DVVMTQTPLSLSVTIGQPASISCKSSQGLLDSYGVTYLNWLFQRPGQPPKRLIYLVSELDSGVPDRFTGSGSGTDFTLRISRVEAEDLGIYYCWQGSHFPLTFGAGTKLELK
u: M⁻¹ s⁻¹
reading: 4070

Origin of the recorded values: patent US20250277045A1
